# ASSAY DETAILS: Solubility measurement by gravimetric method in various solvents
# Assay type: physicochemical
# CONDITION SET: organic solvent or mixture, thermodynamic from solid; Heptane; 50° C.
MEASUREMENT LABEL: solubility (µg/mL)
The reply should contain only the number, in µg/mL.

query: Query (molecule): `CCCCCCCC/C=C\CCCCCCCCOP(O)(O)=S` ; field requested: solubility
result: 3000

* * *

# ASSAY DETAILS: Solubility measurement by gravimetric method in various solvents
# Type: physicochemical
# CONDITION SET: organic solvent or mixture, thermodynamic from solid; MeOH; 50° C.
MEASUREMENT LABEL: solubility (µg/mL)
The reply should contain only the number, in µg/mL.

query: Query (molecule): `CCCCCCCC/C=C\CCCCCCCCOP(O)(O)=S` ; field requested: solubility
result: 4000

* * *

# ASSAY DETAILS: Subcutaneous and intravenous pharmacokinetics in healthy and irradiated Rhesus Macaques
# Assay type: in vivo
# CONDITION SET: male, rhesus monkey, plasma, sc, 1 mg/kg, SC 1 mg/kg, healthy; Average of 6 animals
MEASUREMENT LABEL: Cmax (ng/mL)
The reply should contain only the number, in ng/mL.

query: Query (compound): CCCCCCCC/C=C\CCCCCCCCOP(O)(O)=S [Rx100.L-Lysine] ; field requested: Cmax
result: 3130

* * *

# ASSAY DETAILS: Solubility measurement by gravimetric method in various solvents
# Assay type: physicochemical
# CONDITION SET: thermodynamic from solid; Water; 25° C.
MEASUREMENT LABEL: solubility

query: Query (molecule): `CCCCCCCC/C=C\CCCCCCCCOP(O)(O)=S` ; field requested: solubility
result: > 48 mg/mL

* * *

# ASSAY DETAILS: Solubility measurement by gravimetric method in various solvents
# Format: physicochemical
# CONDITION SET: aqueous with cosolvent or surfactant or cyclodextrin, thermodynamic from solid; MeOH:water (v/v) [1:1]; 50° C.
MEASUREMENT LABEL: solubility

query: Query (compound): `CCCCCCCC/C=C\CCCCCCCCOP(O)(O)=S` ; field requested: solubility
result: > 80 mg/mL

* * *

# ASSAY DETAILS: Subcutaneous and intravenous pharmacokinetics in healthy and irradiated Rhesus Macaques
# Assay type: in vivo
# CONDITION SET: male, rhesus monkey, plasma, sc, 1 mg/kg, SC 1 mg/kg, healthy; individual animals (ID in c1); read-out: T1/2 (converted)
MEASUREMENT LABEL: half-life (h)
The reply should contain only the number, in h.

query: Query (compound): CCCCCCCC/C=C\CCCCCCCCOP(O)(O)=S [Rx100.L-Lysine] ; field requested: half-life
result: 10.6

* * *

# ASSAY DETAILS: physchem
# CONDITION SET: simulated formulation solvent, aqueous with cosolvent or surfactant or cyclodextrin, thermodynamic from solid
MEASUREMENT LABEL: solubility

query: Query (molecule): `CCCCCCCC/C=C\CCCCCCCCOP(O)(O)=S` ; field requested: solubility
result: > 43 mg/mL

* * *

# STUDY SYSTEM: Human LPA2 (Homo sapiens, UniProt Q9HBW0)
# Sequence (Q9HBW0 whole entry): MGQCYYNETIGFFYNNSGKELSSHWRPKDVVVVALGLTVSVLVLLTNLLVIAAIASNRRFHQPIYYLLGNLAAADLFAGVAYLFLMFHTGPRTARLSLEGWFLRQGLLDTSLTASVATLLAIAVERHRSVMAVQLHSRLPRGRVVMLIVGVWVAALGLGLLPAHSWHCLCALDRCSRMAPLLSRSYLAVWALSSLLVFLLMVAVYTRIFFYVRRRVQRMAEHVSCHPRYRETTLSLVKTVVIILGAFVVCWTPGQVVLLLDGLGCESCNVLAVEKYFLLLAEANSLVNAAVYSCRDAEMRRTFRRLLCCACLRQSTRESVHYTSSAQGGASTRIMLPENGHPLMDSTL
# ASSAY DETAILS: Calcium-mobilization assay (FURA-2), human LPA2 transfected cells
We begin with a simple list: items and their reported EC50.
The reply should contain only the number, in nM.

query: Query (molecule): `CCCCCCCC/C=C\CCCCCCCCOP(O)(O)=S` ; field requested: EC50
result: 124

query: Query (molecule): `CCCCCCCC/C=C/CCCCCCCCOP(O)(O)=S` ; field requested: EC50
result: 241

* * *

# ASSAY DETAILS: Solubility measurement by gravimetric method in various solvents
# Type: physicochemical
# CONDITION SET: aqueous with cosolvent or surfactant or cyclodextrin, thermodynamic from solid; IPA:water (v/v) [3:7]; 50° C.
MEASUREMENT LABEL: solubility

query: Query (compound): `CCCCCCCC/C=C\CCCCCCCCOP(O)(O)=S` ; field requested: solubility
result: > 70 mg/mL

* * *

# ASSAY DETAILS: Rx100 salt screening (solid formation, XRPD wet/dry, filterability, exposure to RH > 90%)
# CONDITION SET: Rx100 salt formed with the named base; XRPD
MEASUREMENT LABEL: Polymorphic behavior

molecule=NCCCC[C@@H](N)C(=O)O measurement_label="Polymorphic behavior" result="Polymorphic on XRPD"
molecule=[K+] measurement_label="Polymorphic behavior" result="Polymorphic on XRPD"
molecule="CCCCCCCC/C=C\\CCCCCCCCOP([O-])(O)=S.[Na+] [Sodium]" measurement_label="Polymorphic behavior" result="Polymorphic on XRPD"

* * *

# ASSAY DETAILS: Subcutaneous and intravenous pharmacokinetics in healthy and irradiated Rhesus Macaques
# Format: in vivo
# CONDITION SET: male, rhesus monkey, plasma, iv, 1 mg/kg, IV 1 mg/kg, healthy; Average of 6 animals
MEASUREMENT LABEL: AUC (ng·h/mL)
The reply should contain only the number, in ng·h/mL.

query: Query (molecule): `CCCCCCCC/C=C\CCCCCCCCOP(O)(O)=S` ; field requested: AUC
result: 63200

* * *

# ASSAY DETAILS: Single subcutaneous dose pharmacokinetics in irradiated and unirradiated mice
# Type: in vivo, C57BL/6 mice
# CONDITION SET: both sexes, C57BL/6, mouse, plasma, sc, 1 mg/kg, single SC dose 1 mg/kg; + IR (irradiated mice); whole group (not split by gender); read-out: Cmax
MEASUREMENT LABEL: Cmax (ng/mL)
The reply should contain only the number, in ng/mL.

query: Query (molecule): `CCCCCCCC/C=C\CCCCCCCCOP(O)(O)=S` ; field requested: Cmax
result: 323

* * *

# ASSAY DETAILS: Single subcutaneous dose pharmacokinetics in irradiated and unirradiated mice
# Assay type: in vivo, C57BL/6 mice
# CONDITION SET: female, C57BL/6, mouse, plasma, sc, 1 mg/kg, single SC dose 1 mg/kg; irradiated mice (15.6 Gy, dosed 26 ± 2 h after); F; read-out: AUCINF_obs
MEASUREMENT LABEL: AUC(0-inf) (ng·h/mL)
The reply should contain only the number, in ng·h/mL.

query: Query (molecule): `CCCCCCCC/C=C\CCCCCCCCOP(O)(O)=S` ; field requested: AUC(0-inf)
result: 1240

* * *

# ASSAY DETAILS: Single subcutaneous dose pharmacokinetics in irradiated and unirradiated mice
# Type: in vivo, C57BL/6 mice
# CONDITION SET: both sexes, C57BL/6, mouse, plasma, sc, 1 mg/kg, single SC dose 1 mg/kg; healthy mice; whole group (not split by gender); read-out: Cmax
MEASUREMENT LABEL: Cmax (ng/mL)
The reply should contain only the number, in ng/mL.

query: Query (compound): `CCCCCCCC/C=C\CCCCCCCCOP(O)(O)=S` ; field requested: Cmax
result: 512

* * *

# ASSAY DETAILS: physchem
# CONDITION SET: water, thermodynamic from solid
MEASUREMENT LABEL: solubility

query: Query (compound): `CCCCCCCC/C=C\CCCCCCCCOP(O)(O)=S` ; field requested: solubility
result: > 48 mg/mL

* * *

# ASSAY DETAILS: Subcutaneous and intravenous pharmacokinetics in healthy and irradiated Rhesus Macaques
# Format: in vivo
# CONDITION SET: male, rhesus monkey, plasma, sc, 1 mg/kg, SC 1 mg/kg, healthy; Average of 6 animals
MEASUREMENT LABEL: Tmax (h)
The reply should contain only the number, in h.

query: Query (molecule): CCCCCCCC/C=C\CCCCCCCCOP(O)(O)=S [Rx100.L-Lysine] ; field requested: Tmax
result: 4

* * *

# ASSAY DETAILS: Single subcutaneous dose pharmacokinetics in irradiated and unirradiated mice
# Format: in vivo, C57BL/6 mice
# CONDITION SET: female, C57BL/6, mouse, plasma, sc, 1 mg/kg, single SC dose 1 mg/kg; healthy mice; F; read-out: AUCINF_obs
MEASUREMENT LABEL: AUC(0-inf)
Write the numeric value and append its unit.

query: Query (compound): `CCCCCCCC/C=C\CCCCCCCCOP(O)(O)=S` ; field requested: AUC(0-inf)
result: 1590 ng·h/mL

* * *

# ASSAY DETAILS: Subcutaneous and intravenous pharmacokinetics in healthy and irradiated Rhesus Macaques
# Assay type: in vivo
# CONDITION SET: male, rhesus monkey, plasma, sc, 1 mg/kg, SC 1 mg/kg about 24 h after 11.5 Gy; Average of 6 animals
MEASUREMENT LABEL: AUC (ng·h/mL)
The reply should contain only the number, in ng·h/mL.

query: Query (molecule): `CCCCCCCC/C=C\CCCCCCCCOP(O)(O)=S` ; field requested: AUC
result: 57300

* * *

# ASSAY DETAILS: Subcutaneous and intravenous pharmacokinetics in healthy and irradiated Rhesus Macaques
# Format: in vivo
# CONDITION SET: male, rhesus monkey, plasma, sc, 1 mg/kg, SC 1 mg/kg, healthy; Average of 6 animals; read-out: AUCINF
MEASUREMENT LABEL: AUC(0-inf) (ng·h/mL)
The reply should contain only the number, in ng·h/mL.

query: Query (compound): CCCCCCCC/C=C\CCCCCCCCOP(O)(O)=S [Rx100.L-Lysine] ; field requested: AUC(0-inf)
result: 63700
